test: MELAS cybrid and Rieske KO viability enhancers – cell-based, MELAS cybrids, Rieske KO mouse fibroblasts, CellTiter-Glo, primary screen (AID 1508586); conditions: MELAS cybrid survival, low glucose, CellTiter-Glo 48 h; stronger effect = higher value;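 also: z relative to plate mean and SD of compound and empty wells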
measuredMetric: z-score
Respond numerically, and do not add a unit to the figure.

{"molecule": "OCCN1CC(O)C(O)C(O)C1CO (centres undefined)", "measuredMetric": "z-score", "measValue": -0.386}

Q. Need z-score of O=C(Nc1ccccc1)Nc1ccc(-c2ccc(C(=O)C3CCCC3C(=O)O)cc2)cc1 (centres undefined) , thanks.
A. -0.239

Q. Do the same for CCC1=CC2CN(C1)Cc1c([nH]c3ccccc13)[C@@](C(=O)OC)(c1cc3c(cc1OC)N(C)[C@@H]1[C@@]34CCN3CC=C[C@@](CC)(C(OC(C)=O)[C@]1(O)C(=O)OC)[C@@H]34)C2 (some centres undefined) please
A. 2.06

Q. Do the same for "CO[C@H]1[C@@H]([C@@]2(C)O[C@@H]2CC=C(C)C)[C@]2(CC[C@H]1OC(=O)/C=C/C=C/C=C/C=C/C(=O)O)CO2" please
A. 0.116

Q. Do the same for "CC1(C)CCC[C@@]2(C)[C@H]3CC(=O)O[C@]3(C)CC[C@@H]12" please
A. -0.354

Q. Do the same for "[K+]" please
A. 0.0668

----------
# Lookup of reported fold change keyed by entry
test: viability loss with induced miR-34 in A549 – imaging, A549 dox-inducible miR-34, nuclei and caspase counts, primary screen (AID 1347080); settings: A549 miR-34 inducible, Hoechst nuclei count, 48 h; stronger effect = lower value; cell number ratio, induced over uninduced
Respond numerically, and do not add a unit to the figure.

{"compound": "CC1CS(=O)(=O)CCN1N=Cc1ccc([N+](=O)[O-])o1 (stereo unspecified)", "measValue": 0.925}

Q. Need fold change of O=c1cc(-c2ccncc2)nc(-c2cccc(CN3CCCC(CO)C3)c2)[nH]1 (stereo unspecified) , thanks.
A. 0.934

Q. Do the same for "COc1ncccc1-c1cnn(CC(=O)Nc2cc(-c3ccccn3)nn2C)c1" please
A. 0.961

Q. Do the same for O=C(O)C1OC(Oc2cc3oc(-c4ccccc4)cc(=O)c3c(O)c2O)C(O)C(O)C1O (stereo unspecified) please
A. 0.916

Q. Do the same for "CCNC(=O)c1cccnc1N1CCN(c2ccc(C)cc2C)CC1" please
A. 0.919

Q. Do the same for C=C[C@@]1(C)CC(=O)[C@@]2(O)[C@@]3(C)C(O)CCC(C)(C)[C@@H]3C(O)C(OC(C)=O)[C@@]2(C)O1 (stereo partly specified) please
A. 0.968

Q. Do the same for "O=c1cc(-c2ccccc2)oc2ccccc12" please
A. 0.858

Q. Do the same for "O=C(O)CNC(=O)NC1CCCCC1" please
A. 0.908

Q. Do the same for "O=C(NCCCc1ccccc1)NC1CCCCC1" please
A. 0.869

Q. Do the same for "O=C(O)CSc1nnc(-c2ccc([N+](=O)[O-])o2)o1" please
A. 0.911

----------
assay: MELAS cybrid and Rieske KO viability enhancers – cell-based, MELAS cybrids, Rieske KO mouse fibroblasts, CellTiter-Glo, primary screen (AID 1508586); details: Rieske KO mouse fibroblast survival, low glucose, CellTiter-Glo 72 h;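 also: z relative to plate mean and SD of compound and empty wells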
measuredMetric: z-score

Worked cases, z-score given:
{"compound": "C=C(NC(=O)C(=C)NC(=O)c1csc(C2=N[C@H]3c4csc(n4)[C@H]4NC(=O)c5csc(n5)[C@H]([C@@](C)(O)[C@@H](C)O)NC(=O)[C@H]5CSC(=N5)/C(=C\\C)NC(=O)[C@H]([C@@H](C)O)NC(=O)c5csc(n5)[C@]3(CC2)NC(=O)[C@H](C)NC(=O)C(=C)NC(=O)[C@H](C)NC(=O)[C@H](C(C)CC)N[C@@H]2C=Cc3c([C@H](C)O)cc(nc3[C@H]2O)C(=O)O[C@@H]4C)n1)C(N)=O (stereo not given in full)", "z-score": 3.6}
{"compound": "CN(C)CC/C=C1\\c2ccccc2CSc2ccccc21", "z-score": -0.183}
{"compound": "CCOC(=O)NCCCC(=O)NCCc1ccccc1", "z-score": 0.919}
{"compound": "Cc1ccc(CN2CCN(c3ncnc4sccc34)CC2=O)cc1", "z-score": -0.417}

Q. Need z-score of "COc1ccc2c(C(=O)N(C)Cc3nonc3C)cc(-c3cnn(C)c3)nc2c1" , thanks.
A. -0.423

Q. Do the same for CCC(=O)OCC(=O)C1(OC(=O)CC)[C@H](C)C[C@H]2[C@H]3[C@H]([C@@H](O)C[C@@]21C)[C@@]1(C)C=CC(=O)C=C1C[C@H]3Cl (stereo not given in full) please
A. 0.903

Q. Do the same for CC(C)N(CCC(c1ccccc1)c1cc(CO)ccc1O)C(C)C (stereo not given) please
A. 0.299

Q. Do the same for "N[C@@H]1CCCC[C@H]1N.O=C(O)C(=O)O.[Pt]" please
A. -0.474

Q. Do the same for "O=C1NC(=O)C(=Cc2ccc(-c3ccc(F)cc3O)o2)S1" please
A. -0.0319

Q. Do the same for CC1(C)S[C@@H]2[C@H](NC(=O)C(C(=O)O)c3ccsc3)C(=O)N2[C@H]1C(=O)O (stereo not given in full) please
A. 0.365

----------
assay: viability loss with induced miR-34 in A549 – imaging, A549 dox-inducible miR-34, nuclei and caspase counts, primary screen (AID 1347080); conditions: A549 miR-34 inducible, Hoechst nuclei count, 48 h; stronger effect = lower value; cell number ratio, induced over uninduced
measuredMetric: fold change
Respond numerically, and do not add a unit to the figure.

{"molecule": "CC1C(=O)O[C@H]2C(O)C34C5CC(C(C)(C)C)C36C(O)C(=O)O[C@H]6O[C@]4(C(=O)O5)[C@@]12O (stereo not given in full)", "fold change": 0.925}
{"molecule": "CC1(C)CC(=O)c2sc(N3CCOCC3)nc2C1", "fold change": 0.909}
{"molecule": "CCCCCCCCCCCCCCCC(=O)OC1C(SC)OC(C(NC(=O)C2CC(CCC)CN2C)C(C)Cl)C(O)C1O (stereo not given)", "fold change": 0.883}
{"molecule": "CCc1cc2c(cc1CC)CC(NCC(O)c1ccc(O)c3[nH]c(=O)ccc13)C2 (stereo not given)", "fold change": 1.01}

Q. Need fold change of "CC1(C)S[C@@H]2[C@H](NC(=O)[C@@H](N)c3ccc(O)cc3)C(=O)N2[C@H]1C(=O)O" , thanks.
A. 0.918

----------
# Lookup of reported fold change keyed by entry
experiment: viability loss with induced miR-34 in A549 – imaging, A549 dox-inducible miR-34, nuclei and caspase counts, primary screen (AID 1347080); settings: A549 miR-34 inducible, Hoechst nuclei count, 48 h; stronger effect = lower value; cell number ratio, induced over uninduced
Respond numerically, and do not add a unit to the figure.

{"molecule": "N#CC1C[C@@H]2C[C@H]2N1C(=O)C(N)C12CC3CC(CC(O)(C3)C1)C2 (stereo partly drawn)", "measValue": 0.986}
{"molecule": "CC(C)Oc1ccc(C(=O)NC(CNC(=O)CN(C)C)Cc2ccc(-c3cn4cccc(C(C)O)c4n3)cc2)cc1Cl (stereo not drawn)", "measValue": 1}

Let us examine a further case.
Q. Need fold change of "O=C(C=Cc1ccc(O)cc1)c1ccc(O)cc1O" , thanks.
A. 0.99

----------
# Lookup of reported inhibition keyed by entry
assay: growth inhibition, single agent or in combination, cell-based, chromothripsis tumors, cisplatin or BGB combos (AID 1671449); conditions: LFS_MB_P medulloblastoma cells, measured here: combination with BGB IC40, at 0.005 µM;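 also: cells exposed for 96 hours; 0% = vehicle DMSO and 100% = killing by high DMSO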
Just the number plus its unit, please.

Worked cases, inhibition given:
{"compound": "CCC1(O)C(=O)OCc2c1cc1n(c2=O)Cc2cc3cc(O)ccc3nc2-1 (configuration not stated)", "measValue": "-64.3%"}
{"compound": "Cc1c(Br)cc(NCC(=O)N/N=C/c2cc([N+](=O)[O-])ccc2O)cc1Br", "measValue": "-32.2%"}
{"compound": "Cc1cc(C)c(Nc2ccnc(Nc3ccc(C#N)cc3)n2)c(C)c1", "measValue": "-59.6%"}
{"compound": "C[n+]1ccc(-c2c3nc(c(-c4cc[n+](C)cc4)c4ccc([nH]4)c(-c4cc[n+](C)cc4)c4nc(c(-c5cc[n+](C)cc5)c5ccc2[nH]5)C=C4)C=C3)cc1", "measValue": "-7.27%"}
{"compound": "NC(=O)c1cccc2[nH]c(-c3ccc(C4CCCN4)cc3F)nc12 (configuration not stated)", "measValue": "-24.3%"}
{"compound": "CON=C1CN(c2nc3c(cc2F)c(=O)c(C(=O)O)cn3C2CC2)CC1CN (configuration not stated)", "measValue": "-29%"}

Let us examine a further case.
Q. Need inhibition of CC1OC(n2cc(F)c(=O)[nH]c2=O)C(O)C1O (configuration not stated) , thanks.
A. -40.7%
